Origin of the recorded values: patent US20120101110A1

Recorded Ki, one value per entry.
- tgt: human orexin 2 receptors (Homo sapiens, UniProt O43614)
- Sequence (O43614 whole entry): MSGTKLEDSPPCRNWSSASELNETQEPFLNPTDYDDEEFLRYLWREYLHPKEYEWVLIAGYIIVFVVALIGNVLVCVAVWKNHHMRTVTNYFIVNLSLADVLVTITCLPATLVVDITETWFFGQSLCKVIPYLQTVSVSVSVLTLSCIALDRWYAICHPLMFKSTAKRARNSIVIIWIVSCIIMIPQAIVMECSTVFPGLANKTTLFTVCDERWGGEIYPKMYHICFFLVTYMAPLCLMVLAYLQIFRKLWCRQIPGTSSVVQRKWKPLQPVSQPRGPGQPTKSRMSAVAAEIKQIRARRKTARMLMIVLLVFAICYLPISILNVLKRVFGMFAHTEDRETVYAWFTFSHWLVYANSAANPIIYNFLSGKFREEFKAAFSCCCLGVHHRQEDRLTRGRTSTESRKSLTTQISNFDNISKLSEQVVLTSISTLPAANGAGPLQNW
- protocolNotes: Calcium accumulation in cells (FLIPR), hOx2R
- particulars: cells expressing human orexin 2 receptor; inhibition of orexin A-induced calcium accumulation; Cheng and Prusoff correction
Please give a number only; it is taken to be in nM.

{"compound": "Cc1cc(C)nc(N2CCC3(CCCN(Cc4cccc5c4OCCO5)C3=O)CC2)n1 [Example 20]", "tgt": "human orexin 2 receptors (Homo sapiens, UniProt O43614)", "Ki [nM]": 42}
{"compound": "Cc1cc(C)nc(N2CCC3(CCCN(Cc4nn(C)cc4-c4ccccc4)C3=O)CC2)n1 [Example 107]", "tgt": "human orexin 2 receptors (Homo sapiens, UniProt O43614)", "Ki [nM]": 20}
{"compound": "N#Cc1ccc(N2CCC3(CCCN(Cc4c[nH]c5ccccc45)C3=O)CC2)nc1 [Example 69]", "tgt": "human orexin 2 receptors (Homo sapiens, UniProt O43614)", "Ki [nM]": 320}

// moving on: another record for Ki
Query block: Report Ki, nothing else, for this compound: CCOc1ccnc(N2CCC3(CCCN(Cc4c[nH]c5ccccc45)C3=O)CC2)n1 [Example 52]
Result block: 125

----------
Test system human orexin 1 receptors (Homo sapiens), Kd listed for each of the compounds.
Please give a number only; it is taken to be in nM.

Example cases with answers are listed next.
{"givenSmiles": "Cc1cc(C#N)cc(N2CCC3(CCCN(Cc4cccc(-c5ncc(C)o5)c4)C3=O)CC2)n1", "experimentalEndpoint": "Kd", "valueMeasured": 907}
{"givenSmiles": "Cc1ccnc(N2CCC3(CCCC(=O)N3Cc3cccc4[nH]ccc34)CC2)n1", "experimentalEndpoint": "Kd", "valueMeasured": 5230}
{"givenSmiles": "Cc1cc(C)nc(N2CCC3(CCCN(Cc4c[nH]c5c(C)cccc45)C3=O)CC2)n1", "experimentalEndpoint": "Kd", "valueMeasured": 1770}

Query block: Write down the reported Kd (system: human orexin 1 receptors (Homo sapiens)) of Cc1cc(C)nc(N2CCC3(CCCN(Cc4nn(C)cc4-c4ccccc4)C3=O)CC2)n1
Result block: 2250

Query block: Write down the reported Kd (system: human orexin 1 receptors (Homo sapiens)) of Cc1ccnc(N2CCC3(CCCN(Cc4c[nH]c5ccccc45)C3=O)CC2)c1
Result block: 3590

Query block: Write down the reported Kd (system: human orexin 1 receptors (Homo sapiens)) of Cc1nc(N2CCC3(CCCN(Cc4c[nH]c5ccccc45)C3=O)CC2)ncc1F
Result block: 1160

Query block: Write down the reported Kd (system: human orexin 1 receptors (Homo sapiens)) of Cc1cc(C)nc(N2CCC3(CCCN(Cc4cccc5c4OCCO5)C3=O)CC2)n1
Result block: 8550

----------
- tgt: human orexin 1 receptors (Homo sapiens, UniProt O43613)
- Sequence (O43613 whole entry): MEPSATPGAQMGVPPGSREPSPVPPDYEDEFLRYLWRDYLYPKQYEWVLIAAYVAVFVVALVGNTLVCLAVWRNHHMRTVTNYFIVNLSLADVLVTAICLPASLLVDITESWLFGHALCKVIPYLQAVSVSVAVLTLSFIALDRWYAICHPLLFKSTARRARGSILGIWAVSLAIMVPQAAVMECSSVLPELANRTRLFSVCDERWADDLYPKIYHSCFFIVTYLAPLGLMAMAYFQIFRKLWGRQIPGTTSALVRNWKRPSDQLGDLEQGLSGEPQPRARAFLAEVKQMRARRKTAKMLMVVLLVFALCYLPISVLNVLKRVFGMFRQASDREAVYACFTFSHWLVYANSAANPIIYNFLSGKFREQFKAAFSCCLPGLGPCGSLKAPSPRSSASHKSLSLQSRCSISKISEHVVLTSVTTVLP
- protocolNotes: Calcium accumulation in cells (FLIPR), hOx1R
Recorded Ki, one value per entry.
Please give a number only; it is taken to be in nM.

Example cases with answers are listed next.
{"givenSmiles": "Cc1cc(C)nc(N2CCC3(CCCN(Cc4nn(C)cc4-c4ccccc4)C3=O)CC2)n1", "tgt": "human orexin 1 receptors (Homo sapiens, UniProt O43613)", "unitName": "nM", "valueMeasured": 833}
{"givenSmiles": "Cc1cc(C#N)nc(N2CCC3(CCCN(Cc4cccc(-c5ncccn5)c4)C3=O)CC2)n1", "tgt": "human orexin 1 receptors (Homo sapiens, UniProt O43613)", "unitName": "nM", "valueMeasured": 1860}
{"givenSmiles": "N#Cc1cccc(N2CCC3(CCCN(Cc4cccc(-c5ncccn5)c4)C3=O)CC2)n1", "tgt": "human orexin 1 receptors (Homo sapiens, UniProt O43613)", "unitName": "nM", "valueMeasured": 554}

Query block: Report Ki, nothing else, for this compound: Cc1cc(C)nc(N2CCC3(CCCN(Cc4cccc5c4OCCO5)C3=O)CC2)n1
Result block: 2530

Query block: Report Ki, nothing else, for this compound: N#Cc1ccnc(N2CCC3(CCCN(Cc4cccc(-c5ncccn5)c4)C3=O)CC2)n1
Result block: 477

Query block: Report Ki, nothing else, for this compound: Cc1cc(C)nc(N2CCC3(CCCN(Cc4c[nH]c5ccc(-n6cccn6)cc45)C3=O)CC2)n1
Result block: 37

Query block: Report Ki, nothing else, for this compound: CCc1ccnc(N2CCC3(CCCN(Cc4c[nH]c5ccccc45)C3=O)CC2)n1
Result block: 708

Query block: Report Ki, nothing else, for this compound: N#Cc1ccnc(N2CCC3(CCCN(Cc4c[nH]c5ccccc45)C3=O)CC2)c1
Result block: 1190

----------
Recorded pKi, one value per entry.
- tgt: human orexin 1 receptors (Homo sapiens)
- protocolNotes: Calcium accumulation in cells (FLIPR), hOx1R
Note on units: pKi is unitless, being -log10 of a concentration expressed in mol/L.

{"givenSmiles": "COc1cccc(N2CCC3(CCCN(Cc4c[nH]c5ccccc45)C3=O)CC2)n1", "pKi": 6.16}
{"givenSmiles": "Cc1cncc(N2CCC3(CCCN(Cc4c[nH]c5ccccc45)C3=O)CC2)n1", "pKi": 5.86}
{"givenSmiles": "Cc1cc(N(C)C)nc(N2CCC3(CCCN(Cc4c[nH]c5ccccc45)C3=O)CC2)n1", "pKi": 5.84}

Query block: Report pKi, nothing else, for this compound: Cc1ccnc(N2CCC3(CCCC(=O)N3Cc3cccc4[nH]c(C)cc34)CC2)n1
Result block: 6.06

Query block: Report pKi, nothing else, for this compound: N#Cc1cccc(N2CCC3(CCCN(Cc4c[nH]c5ccccc45)C3=O)CC2)n1
Result block: 5.82

Query block: Report pKi, nothing else, for this compound: COc1cncc(-c2nn(C)nc2CN2CCCC3(CCN(c4nc(C)cc(C)n4)CC3)C2=O)c1
Result block: 6.50

Query block: Report pKi, nothing else, for this compound: CCn1cc(CN2CCCC3(CCN(c4nc(C)cc(C)n4)CC3)C2=O)c2ccccc21
Result block: 5.50

Query block: Report pKi, nothing else, for this compound: Cc1cc(C)nc(N2CCC3(CCCN(Cc4n[nH]c5ccccc45)C3=O)CC2)n1
Result block: 6.28

----------
Recorded Kd, one value per entry.
- tgt: human orexin 2 receptors (Homo sapiens)
- protocolNotes: Radioligand binding assay ([3H]-SB649868 competition), hOx2R
- particulars: competition with about 1 nM [3H]-SB649868; CHO or HEK cell membranes expressing human orexin 2 receptor; read-out: binding hOx2R Kd
Please give a number only; it is taken to be in nM.

{"compound": "COc1cc(OC)nc(N2CCC3(CCCN(Cc4c[nH]c5ccccc45)C3=O)CC2)n1 [Example 88]", "Kd (nM)": 611}
{"compound": "N#Cc1cccc(N2CCC3(CCCC(=O)N3Cc3cccc4[nH]ccc34)CC2)n1 [Example 92]", "Kd (nM)": 1150}
{"compound": "Cc1ccc2[nH]cc(CN3CCCC4(CCN(c5nc(C)cc(C)n5)CC4)C3=O)c2c1 [Example 104]", "Kd (nM)": 25}
{"compound": "Cc1cc(C#N)cc(N2CCC3(CCCN(Cc4cccc(-c5ncccn5)c4)C3=O)CC2)n1 [Example 28]", "Kd (nM)": 150}
{"compound": "N#Cc1ccnc(N2CCC3(CCCN(Cc4c[nH]c5ccccc45)C3=O)CC2)c1 [Example 10]", "Kd (nM)": 116}
{"compound": "Cc1cc(C)nc(N2CCC3(CCCN(Cc4nc(C)oc4-c4ccccc4)C3=O)CC2)n1 [Example 108]", "Kd (nM)": 72}
{"compound": "CCc1cc(C)nc(N2CCC3(CCCN(Cc4c[nH]c5ccccc45)C3=O)CC2)n1 [Example 111]", "Kd (nM)": 44}
{"compound": "Cc1cnc(-c2cccc(CN3CCCC4(CCN(c5cc(C#N)ccn5)CC4)C3=O)c2)o1 [Example 40]", "Kd (nM)": 37}
{"compound": "Cc1cc(C#N)nc(N2CCC3(CCCN(Cc4c[nH]c5ccccc45)C3=O)CC2)n1 [Example 75]", "Kd (nM)": 466}
{"compound": "Cc1cccc(N2CCC3(CCCN(Cc4c[nH]c5ccccc45)C3=O)CC2)n1 [Example 9]", "Kd (nM)": 265}

Query block: Report Kd, nothing else, for this compound: Cc1cncc(N2CCC3(CCCC(=O)N3Cc3cccc4[nH]ccc34)CC2)n1 [Example 41]
Result block: 85

Query block: Report Kd, nothing else, for this compound: Cc1cc(C#N)cc(N2CCC3(CCCN(Cc4cccc(-c5ncc(C)o5)c4)C3=O)CC2)n1 [Example 29]
Result block: 100

Query block: Report Kd, nothing else, for this compound: COC(=O)c1ccc2[nH]cc(CN3CCCC4(CCN(c5nc(C)cc(C)n5)CC4)C3=O)c2c1 [Example 115]
Result block: 3

Query block: Report Kd, nothing else, for this compound: Cc1cc(C)nc(N2CCC3(CCCN(Cc4cccc(-c5ncc(C)o5)c4)C3=O)CC2)n1 [Example 36]
Result block: 89

Query block: Report Kd, nothing else, for this compound: Cc1cc(C)nc(N2CCC3(CCCN(Cc4c[nH]c5c(C)cccc45)C3=O)CC2)n1 [Example 103]
Result block: 35
